Tested on: Proteus mirabilis
Assay: Antimicrobial activity against Proteus mirabilis NCIM 2388 assessed as zone of inhibition by well diffusion method
Type: functional
MEASURED PROPERTY: inhibition zone (IZ) (mm)

- Cc1ccc(Nc2nc(-c3cn(-c4ccccc4)nc3-c3ccccc3)cs2)cc1: 15
- Cc1ccc(Nc2nc(-c3cn(-c4ccc(F)cc4)nc3-c3ccc(Cl)cc3)cs2)cc1: 15
- Clc1ccc(-c2nn(-c3ccccc3)cc2-c2csc(Nc3ccccc3)n2)cc1: 15.2
- COc1ccc(Nc2nc(-c3cn(-c4ccccc4)nc3-c3ccccc3)cs2)cc1: 14.2
- Cc1ccc(Nc2nc(-c3cn(-c4ccc(F)cc4)nc3-c3ccccc3)cs2)cc1: 14.2
- COc1ccc(Nc2nc(-c3cn(-c4ccccc4)nc3-c3ccc(C)cc3)cs2)cc1: 15
- COc1ccc(Nc2nc(-c3cn(-c4ccc(F)cc4)nc3-c3ccc(Cl)cc3)cs2)cc1: 13.2
- Fc1ccc(-c2nn(-c3ccc(F)cc3)cc2-c2csc(Nc3ccc(Cl)cc3)n2)cc1: 15
- COc1ccc(Nc2nc(-c3cn(-c4ccc(F)cc4)nc3-c3ccc(F)cc3)cs2)cc1: 14
- Cc1ccc(-c2nn(-c3ccccc3)cc2-c2csc(Nc3ccc(Cl)cc3)n2)cc1: 13.8
- Cc1ccc(Nc2nc(-c3cn(-c4ccccc4)nc3-c3ccc(C)cc3)cs2)cc1: 15
- Fc1ccc(-n2cc(-c3csc(Nc4ccc(Cl)cc4)n3)c(-c3ccccc3)n2)cc1: 15
- CN[C@@H]1[C@H](O[C@H]2[C@H](O[C@H]3[C@H](O)[C@@H](O)[C@H](N=C(N)N)[C@@H](O)[C@@H]3N=C(N)N)O[C@@H](C)[C@]2(O)C=O)O[C@@H](CO)[C@H](O)[C@H]1O [STREPTOMYCIN]: 21
- c1ccc(Nc2nc(-c3cn(-c4ccccc4)nc3-c3ccccc3)cs2)cc1: 15
- Fc1ccc(-c2nn(-c3ccc(F)cc3)cc2-c2csc(Nc3ccccc3)n2)cc1: 15.2
- Fc1ccc(-n2cc(-c3csc(Nc4ccccc4)n3)c(-c3ccc(Cl)cc3)n2)cc1: 14.2
- Fc1ccc(-n2cc(-c3csc(Nc4ccccc4)n3)c(-c3ccccc3)n2)cc1: 13.8
- COc1ccc(Nc2nc(-c3cn(-c4ccc(F)cc4)nc3-c3ccccc3)cs2)cc1: 13.8

====

Tested on: Staphylococcus aureus
Assay: Antimicrobial activity against Staphylococcus aureus NCIM 2178 assessed as zone of inhibition by well diffusion method
Assay type: functional
As shown below, each of these molecules has a reported inhibition zone (IZ) value.
MEASURED PROPERTY: inhibition zone (IZ)

- Clc1ccc(Nc2nc(-c3cn(-c4ccccc4)nc3-c3ccc(Cl)cc3)cs2)cc1: 14.2 mm
- Fc1ccc(-n2cc(-c3csc(Nc4ccccc4)n3)c(-c3ccccc3)n2)cc1: 15 mm
- COc1ccc(Nc2nc(-c3cn(-c4ccccc4)nc3-c3ccccc3)cs2)cc1: 15 mm
- COc1ccc(Nc2nc(-c3cn(-c4ccccc4)nc3-c3ccc(C)cc3)cs2)cc1: 14 mm
- Cc1ccc(Nc2nc(-c3cn(-c4ccccc4)nc3-c3ccc(C)cc3)cs2)cc1: 13 mm
- Cc1ccc(-c2nn(-c3ccccc3)cc2-c2csc(Nc3ccc(Cl)cc3)n2)cc1: 16 mm
- Cc1ccc(Nc2nc(-c3cn(-c4ccc(F)cc4)nc3-c3ccc(Cl)cc3)cs2)cc1: 17 mm
- COc1ccc(Nc2nc(-c3cn(-c4ccccc4)nc3-c3ccc(Cl)cc3)cs2)cc1: 15 mm
- Fc1ccc(-c2nn(-c3ccc(F)cc3)cc2-c2csc(Nc3ccc(Cl)cc3)n2)cc1: 14 mm
